B1: DYRK1B (parent)
chain: ARKYFERLPGGGWTLRRTKELRKD

# Variants of: B1
# method_description: protein stability index of a GFP-peptide fusion (GPS, HEK-293T) (PSI 1-6); higher = more stable;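 further: lentivirally expressed fusions sorted by FACS into six bins by GFP to DsRed ratio, PSI derived from sequencing read proportions per bin multiplied by bin number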
# protocol_conditions: c terminus: a fixed tail appended
quantity: protein stability index
Give your answer as a number; write no unit.

Below: 10 variants and their reported protein stability index.
{"variant_label": "E6K", "protein stability index": 2.78}
{"variant_label": "T14K", "protein stability index": 3.34}
{"variant_label": "E6L", "protein stability index": 2.64}
{"variant_label": "R17S", "protein stability index": 3.35}
{"variant_label": "R17P", "protein stability index": 2.75}
{"variant_label": "G10T", "protein stability index": 3.19}
{"variant_label": "E20F", "protein stability index": 3.57}
{"variant_label": "F5E", "protein stability index": 4.26}
{"variant_label": "G11L", "protein stability index": 3.11}
{"variant_label": "W13P", "protein stability index": 4.18}

Record A1I , field protein stability index: 2.47
